tested on: COLO 205 colon; assay: NCI-60 one-dose screen, 48 h (100 = growth as untreated, 0 = no growth, -100 = all killed); settings: 10 µM unless noted
This is part of a sample that, as a whole, favours compounds with a hit. Of some 83,000 tested, about 20% had one in any assay.

# SMILES NOTATION, growth / %
data = [
    ("COc1cc(/C=C/C(=O)c2c(C)[n+]([O-])c3ccccc3[n+]2[O-])ccc1O", 121),
    ("CCCCCCCCCCCCCCCC(=O)NS(=O)(=O)OC[C@H]1O[C@@H](n2cnc3c(N)ncnc32)[C@H](O)[C@@H]1O", -62.8),
    ("COc1cc(-c2nc(SCC(=O)Nc3ccc(C(C)=O)cc3)[nH]c(=O)c2C#N)cc(OC)c1OC", -16.2),
    ("CCCCCn1ncc(-c2c(O)c(O)cc3c(O)c(-c4c(C)cc5c(-c6cnn(CCCCC)n6)c(O)c(O)cc5c4O)c(C)cc23)n1", -6.73),
    ("COc1ccc(-c2cc3ccc(N(C)C)cc3nc2N)c(F)c1", 12.2),
]

----------
system: OVCAR-8 ovarian; assay: NCI-60 one-dose screen, 48 h (100 = growth as untreated, 0 = no growth, -100 = all killed); details: 10 µM unless noted
Compounds without any hit were thinned out: in the full panel of roughly 83,000, 20% have a hit.
RECORDED METRIC: growth (%)

# MOLECULE, EXPERIMENTAL VALUE
records = [
    ("NS(=O)(=O)c1ccc(-n2nc(-c3ccc(Cl)cc3)ccc2=O)cc1", 102),
    ("O=C(Nc1cccc([N+](=O)[O-])c1)c1ccc2ccccc2c1O", 80),
    ("O=C(Nc1ccccc1F)Nc1ccccc1Cl", 101),
    ("O=C(O)c1cccc(S(=O)(=O)c2ccccc2)c1", 112),
    ("COc1ccc(Cl)cc1NC(=O)c1cc2c([nH]1)-c1nc(N)sc1CCC2", 101),
    ("C=CCOc1ccc(/C(Cl)=N/N=C(\\Cl)c2cc(OC)c(OC)c(OC)c2)cc1", 62.6),
    ("COc1ccc(OC)c(NCC(=O)n2nc(/C=C\\c3ccc(O)c(OC)c3)cc2/C=C\\c2ccc(O)c(OC)c2)c1", 7.25),
    ("Cc1cccc[n+]1CCC[n+]1ccccc1C", 105),
    ("CC(C(=O)O)N1C(N)=NNC1c1ccccc1O (stereo unspecified)", 90.2),
    ("O[C@@H]1CCO[C@H](c2ccc3ccccc3c2)C1", 106),
    ("COc1ccc(CCNC=O)cc1OC", 107),
]

----------
tested on: TK-10 renal; experiment: NCI-60 one-dose screen, 48 h; conditions: 10 µM unless noted
This is part of a sample that, as a whole, favours compounds with a hit. Of some 83,000 tested, about 20% had one in any assay. Activity calls are given as the source filed them. How the source made its calls: active means growth percent below 10; inactive means the rest.
Possible outcomes: active, inactive

# COMPOUND, GROUP LABEL
measured = [
    ("N#CC(C#N)=C(C#N)c1c[nH]c2ccccc12", "inactive"),
    ("CCOc1ccc(NC2=C(Cl)C(=O)c3ccccc3C2=O)cc1", "inactive"),
    ("O[C@@H]1CCO[C@H](c2ccc3ccccc3c2)C1", "inactive"),
    ("Nn1c(SCC(=O)Nc2cc(Cl)c(Cl)cc2Cl)nnc1-c1cc(F)c(Cl)cc1Cl", "inactive"),
    ("C#CC(=O)/C=C/CCCCCCC#CC(=O)CCC(=O)C#CCCCCCC/C=C/C(=O)C#C", "inactive"),
    ("Cc1c(NC(=O)c2sc3nc4c(cc3c2N)CN(Cc2ccccc2)CC4)cccc1C(F)(F)F", "inactive"),
    ("Cc1nc(N)nc(SCc2ccccc2)c1Br", "inactive"),
    ("Cc1ccc2c(c1)Nc1ccc(C)cc1C2(C)C", "inactive"),
    ("O=C(Nc1ccc(F)cc1)Nc1ccc(Br)c(C(F)(F)F)c1", "inactive"),
    ("CCN(CC)CC(=O)Nc1c(C)cccc1C", "inactive"),
    ("CN(C)c1ncc(C#Cc2c(F)cccc2F)c2ccccc12", "inactive"),
    ("Cc1cc(N2CCOCC2)nc(N(CCNc2ccnc3cc(Cl)ccc23)Cc2ccco2)n1", "inactive"),
    ("Cn1cnc([N+](=O)[O-])c1N1c2ccncc2Sc2ccncc21", "inactive"),
    ("O=C(Nc1cccc([N+](=O)[O-])c1)c1ccc2ccccc2c1O", "inactive"),
    ("Cc1c(Cl)ccc2c(C(=O)Cl)cc(-c3ccccc3)nc12", "inactive"),
    ("COc1ccc(/C=C/C(=O)/C=C(/C=C/c2ccc(OC)c(OC)c2OC)OB(F)F)c(OC)c1OC", "inactive"),
    ("CCC1CN2C(=N1)c1ccccc1-c1cc(Cl)ccc12 (centres undefined)", "inactive"),
    ("S=c1n(CNc2ccc(Cl)nn2)nc(-c2cc(Cl)cc(Cl)c2Cl)n1/N=C/c1ccc(Cl)cc1", "inactive"),
    ("c1cncc(-c2nc3ccccc3[nH]2)c1", "inactive"),
    ("CN(C)C(=O)Nc1nc2cc(Cl)c(Cl)cc2[nH]1", "inactive"),
    ("CCc1c(C)c2cc3nc(NCc4ccccc4)oc3c(C)c2oc1=O", "inactive"),
    ("CN1CCN(Cn2nc(-c3cc(Cl)cc(Cl)c3Cl)n(/N=C/c3ccc(Cl)cc3)c2=S)CC1", "inactive"),
    ("CCNc1ncnc2n[nH]nc12", "inactive"),
    ("S=c1[nH]nc(Cn2c3ccccc3c3ccncc32)o1", "inactive"),
    ("Cc1cccc(CC(=O)c2ccccc2)n1", "inactive"),
    ("COc1cc(/C=C2/Oc3cc4occc4c(OC)c3C2=O)ccc1OCC(=O)Nc1ccncc1", "inactive"),
    ("C=C1C(=O)O[C@H]2[C@H]1CC/C(COC(=O)c1ccc(C#N)cc1)=C\\CC[C@@]1(C)O[C@@H]21", "inactive"),
    ("CC(=O)Nc1ccc([I+]c2ccc([N+](=O)[O-])cc2)cc1", "inactive"),
    ("COc1cc(NC(=O)C#Cc2ccccc2)c(OC)cc1Cl", "inactive"),
    ("COc1ccc2c(c1)nnc1c3cccnc3[nH]c21", "inactive"),
    ("CCC(C)Nc1ccc(N)cc1 (centres undefined)", "inactive"),
    ("C[C@]12CC[C@@H]3c4ccc(O)c(N)c4CC[C@H]3[C@@H]1CC[C@@H]2O", "inactive"),
    ("CN1CCN(C(=O)/C=C/c2ccc([N+](=O)[O-])o2)CC1", "inactive"),
    ("FC(F)(F)c1cccc([Si](F)(c2cccc(C(F)(F)F)c2)c2cccc(C(F)(F)F)c2)c1", "inactive"),
    ("CCOC(=O)C1=C(N)Oc2cc(OC)ccc2C1c1ccc(F)c(F)c1 (centres undefined)", "inactive"),
    ("Nn1c(CN2CCN(c3cc4c(cc3F)c(=O)c(C(=O)O)cn4C3CC3)CC2)n[nH]c1=S", "inactive"),
    ("CC(C)(C)OC(=O)N1CCN(CCn2cc(C(F)(F)F)c3c(Cl)ncnc32)CC1", "inactive"),
    ("CC(=O)N1N=C2N(Cc3ccccc3)C(=O)c3c(sc4c3CCCC4)N2C1c1cn(-c2ccccc2)nc1-c1ccc(Cl)cc1 (centres undefined)", "inactive"),
    ("COC(=O)Nc1nc2ccc(Sc3ccccc3)cc2[nH]1", "inactive"),
    ("CC(Cl)(CCl)CS(=O)(=O)c1ccc(Cl)cc1 (centres undefined)", "inactive"),
    ("O=C(Nc1ccc(F)cc1)Nc1ccc(Cl)c([N+](=O)[O-])c1", "inactive"),
    ("CCOc1ccc(NC(=O)Nc2cc(C(C)C)ccc2C)cc1", "inactive"),
    ("CC(C(=O)O)N1C(N)=NNC1c1ccccc1O (centres undefined)", "inactive"),
    ("C=C1C(=O)O[C@H]2[C@H]1CC/C(COC(=O)c1ccc(Br)cc1)=C\\CC[C@@]1(C)O[C@@H]21", "active"),
]
